test-protocol: gradient 5% acetonitrile 3 min, to 50% in 2 min, to 85% in 15 min, held 3 min, 100 µL/min
applied-conditions: column: Zorbax Extend-C18 2.1 x 50 mm; eluents: water / acetonitrile, 0.1% formic acid
measured-attribute: RP-LC retention time (s)
Quick note: give the figure in s, leave out the unit.

Inquiry: For CC1CCCN(C(=O)c2cn(-c3ccc(S(=O)(=O)N4CCCC(C)C4)cn3)cn2)C1 (stereo not given) , write its RP-LC retention time.
Reply text: 939

Inquiry: For Cc1nc(C)c(C(=O)Nc2nc(-c3ccc(Br)cc3)c(C)s2)s1 , write its RP-LC retention time.
Reply text: 1100

Inquiry: For Cc1nc(N2CCOCC2)c2c(C(=O)Nc3cccc(C(F)(F)F)c3)c(C)oc2n1 , write its RP-LC retention time.
Reply text: 955

Inquiry: For Cc1cccc(C(=O)N2CCc3nc[nH]c3C2)c1 , write its RP-LC retention time.
Reply text: 569

Inquiry: For CCOC(=O)c1cnc2ccc(OCC)cc2c1N1CCN(c2ccccc2)CC1 , write its RP-LC retention time.
Reply text: 930

Inquiry: For COC[C@@H]1CN(c2ncccn2)C[C@H]1C(=O)N(C)Cc1ccco1 , write its RP-LC retention time.
Reply text: 619

Inquiry: For COc1ccc(N2CC(c3nc(-c4ccc(Cl)cc4)no3)CC2=O)c(OC)c1 (stereo not given) , write its RP-LC retention time.
Reply text: 1000

Inquiry: For CC1CCN(S(=O)(=O)c2cccn(CC(=O)N3CCCc4ccccc43)c2=O)CC1 , write its RP-LC retention time.
Reply text: 910

Inquiry: For Cc1cc(C)n(-c2ccnc(N3CCC(C(N)=O)CC3)n2)n1 , write its RP-LC retention time.
Reply text: 586

Inquiry: For CCOc1ccc(NC(=O)NCC(c2cccnc2)c2cn(CC)c3ccccc23)cc1 (stereo not given) , write its RP-LC retention time.
Reply text: 751

Inquiry: For CCc1nn2c(CNS(=O)(=O)c3cc(F)cc(F)c3)c(-c3ccccc3)nc2s1 , write its RP-LC retention time.
Reply text: 963

Inquiry: For CCn1c(=O)c(=O)n(CC(=O)NC2CCCCCCC2)c2cccnc21 , write its RP-LC retention time.
Reply text: 806

Inquiry: For CC(=O)N1CCC(C2CCN(Cc3ccc(Br)s3)C2)CC1 (stereo not given) , write its RP-LC retention time.
Reply text: 603

Inquiry: For CCOC(=O)Cc1ccc(NC(=O)N2CCc3nc[nH]c3C2)cc1 , write its RP-LC retention time.
Reply text: 588

Inquiry: For CC(C)n1cc(S(=O)(=O)Nc2ccc(Cl)cc2F)c2cccnc21 , write its RP-LC retention time.
Reply text: 950

Inquiry: For O=C(c1cncnc1)N1CCCn2ccnc2C1C1CCCC1 (stereo not given) , write its RP-LC retention time.
Reply text: 572

Inquiry: For COc1ccc(C)cc1NC(=O)Cn1cnc2nc(N3CCC(C(=O)NC4CC4)CC3)sc2c1=O , write its RP-LC retention time.
Reply text: 723

Inquiry: For O=C(CNC(=O)c1ccc(F)c(Cl)c1)Nc1nc2ccccc2[nH]1 , write its RP-LC retention time.
Reply text: 660

Inquiry: For Cc1cc(NC(=O)c2ccc(-n3ccnc3)nn2)no1 , write its RP-LC retention time.
Reply text: 553

Inquiry: For COCCn1cnc2c(-c3ccccc3)cn(CC(=O)NC3CCCC3)c2c1=O , write its RP-LC retention time.
Reply text: 837

Inquiry: For COc1ccc(Cl)cc1NC(=O)Cn1c(C)nc2c(sc3nc(-c4ccccc4)ccc32)c1=O , write its RP-LC retention time.
Reply text: 1180

Inquiry: For N#C/C(=C\c1ccc[nH]1)C(=O)c1ccccc1 , write its RP-LC retention time.
Reply text: 892

Inquiry: For Clc1nc(Oc2ccccc2)nc(-c2cn(-c3ccccc3)c3ccccc23)n1 , write its RP-LC retention time.
Reply text: 732

Inquiry: For CCN(Cc1cn(C)nc1C)C(=O)C1CN(C(=O)c2ccccc2)CC12CCCCC2 (stereo not given) , write its RP-LC retention time.
Reply text: 793

Inquiry: For CCn1c(N2CCCC(C(=O)NCc3ccc(F)cc3)C2)cc(=O)n(C)c1=O (stereo not given) , write its RP-LC retention time.
Reply text: 776

Inquiry: For O=C(NCc1ccc(N2CCOCC2)nc1)c1cccc(Br)c1 , write its RP-LC retention time.
Reply text: 626

Inquiry: For COc1ccc(-c2nc(C3CC(=O)N(c4ccc(OC)c(OC)c4)C3)no2)c(C)c1 (stereo not given) , write its RP-LC retention time.
Reply text: 911

Inquiry: For CN(CC1(C)CCOCC1)S(=O)(=O)c1cccc(F)c1 , write its RP-LC retention time.
Reply text: 895

Inquiry: For CCNC(=O)N1CCc2c([nH]c3ccc(C)cc23)C12C(=O)N(C)c1ccccc12 (stereo not given) , write its RP-LC retention time.
Reply text: 798

Inquiry: For Cc1nc([C@@H]2CN(C(=O)c3cccn3C)C[C@H]2C(N)=O)n[nH]1 , write its RP-LC retention time.
Reply text: 576

Inquiry: For Cc1nc(-c2ccccc2)cc2nn(CC(=O)NC3CCCCC3)c(=O)n12 , write its RP-LC retention time.
Reply text: 880

Inquiry: For COC(=O)C1=CN(C2CC2)c2cc(N3CCOCC3)c(F)cc2S1(=O)=O , write its RP-LC retention time.
Reply text: 736

Inquiry: For NC1CCN(O)C1=O (stereo not given) , write its RP-LC retention time.
Reply text: 621

Inquiry: For CCc1nc2c(NC(=O)c3ccc(C(F)(F)F)cc3)cccn2n1 , write its RP-LC retention time.
Reply text: 957

Inquiry: For Cc1cc2c(cc1C(=O)NCc1ccc3c(c1)CCCO3)OCCCO2 , write its RP-LC retention time.
Reply text: 872

Inquiry: For CCOC(=O)N1CCN(C(=O)C2CCC(CNS(=O)(=O)CC)CC2)CC1 (stereo not given) , write its RP-LC retention time.
Reply text: 631

Inquiry: For CN1C(=O)c2cc(C(=O)NCc3cccc(F)c3)nn2CC1(C)C(=O)NC1CCCC1 (stereo not given) , write its RP-LC retention time.
Reply text: 750

Inquiry: For COCC(=O)Oc1c(Sc2ccc(C)cc2)c(C)nn1-c1ccccc1 , write its RP-LC retention time.
Reply text: 854

Inquiry: For COc1ccc(N2CCN(C(=O)C3CCCN(c4nc5ccccc5nc4OC)C3)CC2)cc1 (stereo not given) , write its RP-LC retention time.
Reply text: 1100

Inquiry: For CN1c2cc(F)ccc2C(=O)NC12CCN(C(=O)Cc1cccc(F)c1)CC2 , write its RP-LC retention time.
Reply text: 752

----------
Give RP-LC retention time for every item shown.
test-protocol: gradient 5% acetonitrile 3 min, to 50% in 2 min, to 85% in 15 min, held 3 min, 100 µL/min
applied-conditions: column: Zorbax Extend-C18 2.1 x 50 mm; eluents: water / acetonitrile, 0.1% formic acid
Quick note: give the figure in s, leave out the unit.

Inquiry: For Cc1nnc2ccc(-c3noc(Cc4ccccc4Br)n3)cn12 , write its RP-LC retention time.
Reply text: 838

Inquiry: For CCOc1nc2ccccc2nc1N1CCCC(C(=O)Nc2cc(C)cc(C)c2)C1 (centres undefined) , write its RP-LC retention time.
Reply text: 1320

Inquiry: For Cc1c(Cl)cccc1-n1ccn2cc(-c3ccc(F)cc3)nc2c1=O , write its RP-LC retention time.
Reply text: 896

Inquiry: For CCCNC(=O)C1CCCN(c2nc3ncn(CC(=O)Nc4ccc(F)cc4F)c(=O)c3s2)C1 (centres undefined) , write its RP-LC retention time.
Reply text: 684

Inquiry: For Cn1nc(-c2nnc(-c3ccccc3Cl)o2)c2c1CCN(C(=O)c1ccc(C(F)(F)F)cc1)C2 , write its RP-LC retention time.
Reply text: 943

Inquiry: For O=C(Cn1c(CN2CCCCCC2)nc2ccccc21)N1CCCCC1 , write its RP-LC retention time.
Reply text: 662

Inquiry: For O=C(NCCC1=CCCCC1)C1CCCN(c2cnc3nccnc3c2)C1 (centres undefined) , write its RP-LC retention time.
Reply text: 766

Inquiry: For COc1cccc2cc(C(=O)Nc3cc(C)nn3-c3ccccc3)oc12 , write its RP-LC retention time.
Reply text: 832

Inquiry: For O=C1CC(C(F)(F)F)c2c(c(C(=O)O)cn2-c2ccc(F)cc2)N1 (centres undefined) , write its RP-LC retention time.
Reply text: 727

----------
test-protocol: gradient 5% acetonitrile 3 min, to 50% in 2 min, to 85% in 15 min, held 3 min, 100 µL/min
applied-conditions: column: Zorbax Extend-C18 2.1 x 50 mm; eluents: water / acetonitrile, 0.1% formic acid
measured-attribute: RP-LC retention time (s)
Quick note: give the figure in s, leave out the unit.

Inquiry: For Cc1ccc(-c2cc3c(=O)n(Cc4noc(-c5ccccc5)n4)ccn3n2)c(C)c1 , write its RP-LC retention time.
Reply text: 1160

Inquiry: For COc1ccc(C(=O)N2CCN(c3cc(-c4cccs4)[nH]n3)CC2)cc1F , write its RP-LC retention time.
Reply text: 837

Inquiry: For C=Cc1ccc(Cn2cc(S(=O)(=O)N3CCCCC3)ccc2=O)cc1 , write its RP-LC retention time.
Reply text: 968

Inquiry: For Cc1cc(Cl)ccc1NC(=O)N1C[C@@H]2C[C@H](NS(=O)(=O)c3ccccc3)[C@H]1C2 , write its RP-LC retention time.
Reply text: 922

Inquiry: For Cc1cccc(Sc2nccnc2N2CCC(C(=O)NC3CCCC3)CC2)c1 , write its RP-LC retention time.
Reply text: 1040

Inquiry: For Cc1cc(C)n(-c2ccnc(N3CCC(C(=O)N4CCN(c5ccccn5)CC4)CC3)n2)n1 , write its RP-LC retention time.
Reply text: 629

Inquiry: For O=C(CN1C(=O)C2CCCCC2C1=O)N1CCN(Cc2ccc3c(c2)OCO3)CC1 (centres undefined) , write its RP-LC retention time.
Reply text: 603

Inquiry: For Cc1nnc(N2CCC(C(=O)NCCN3CCOCC3)CC2)c2nn(-c3ccc(Cl)cc3)c(C)c12 , write its RP-LC retention time.
Reply text: 571

Inquiry: For CC(C)Cc1noc(C2(F)CCN(S(=O)(=O)c3cccc(Cl)c3)CC2)n1 , write its RP-LC retention time.
Reply text: 1190
